system: rodent lifetime carcinogenesis bioassay, tumor incidence TD50; test: carcinogenic potency in animals, long-term in vivo studies, CPDB compilation (AID 1745844); details: mouse; strain Swiss; males; inhaled; site: lung; lesion: several types; types named in the paper; dosed 52 weeks; study length 126 weeks
ASSAY READOUT: TD50

* C=C(Cl)Cl | 59.9 mg/kg/day

---

system: rodent lifetime carcinogenesis bioassay, tumor incidence TD50; assay: carcinogenic potency in animals, long-term in vivo studies, CPDB compilation (AID 1745844); conditions: rat; strain Wistar; males; inhaled; site: lung; lesion: adenocarcinoma; dosed 78 weeks; study length 134 weeks
ASSAY READOUT: TD50 (mg/kg/day)

• [Cl][Cd][Cl] = 0.022

---

system: rodent lifetime carcinogenesis bioassay, tumor incidence TD50; experiment: carcinogenic potency in animals, long-term in vivo studies, CPDB compilation (AID 1745844); details: mouse; strain D2B6F1 mice; males; in feed; site: liver; lesion: several types; types named in the paper; dosed 69 weeks; study length 69 weeks
ASSAY READOUT: TD50

- ClC1=C(Cl)C2(Cl)C3C(Cl)C(Cl)CC3C1(Cl)C2(Cl)Cl (stereo unspecified): 1.03 mg/kg/day

---

test system: rodent lifetime carcinogenesis bioassay, tumor incidence TD50; assay: carcinogenic potency in animals, long-term in vivo studies, CPDB compilation (AID 1745844); conditions: rat; strain Fischer 344; males; in drinking water; site: all sites; lesion: leukemia; dosed 103 weeks; study length 104 weeks
ASSAY READOUT: TD50 (mg/kg/day)

* Oc1ccccc1 | 143

---

test system: rodent lifetime carcinogenesis bioassay, tumor incidence TD50; test: carcinogenic potency in animals, long-term in vivo studies, CPDB compilation (AID 1745844); details: rat; strain Osborne-Mendel; males; in feed; site: urinary bladder; lesion: several types; types named in the paper; dosed 104 weeks; study length 104 weeks
ASSAY READOUT: TD50

• OCCOCCO = 1660 mg/kg/day

---

system: rodent lifetime carcinogenesis bioassay, tumor incidence TD50; assay: carcinogenic potency in animals, long-term in vivo studies, CPDB compilation (AID 1745844); conditions: monkey; strain Rhesus [Macaca mulatta]; both sexes; several routes; site: kidney; lesion: hemangiosarcoma; dosed 825 weeks; study length 1182 weeks
ASSAY READOUT: TD50 (mg/kg/day)

- CNNCc1ccc(C(=O)NC(C)C)cc1: 39.6

---

test system: rodent lifetime carcinogenesis bioassay, tumor incidence TD50; test: carcinogenic potency in animals, long-term in vivo studies, CPDB compilation (AID 1745844); conditions: mouse; strain B6C3F1; males; by gavage; site: lung; lesion: alveolar/bronchiolar adenoma + alveolar/bronchiolar carcinoma; dosed 104 weeks; study length 104 weeks
Threshold 7000 mg/kg/day. TD50 below it: label 1. TD50 at it or above: label 0.

• C=C(C)C#N = label 1
• C=C1C/C(=C/C)C(=O)O[C@@H]2CCN3CC=C(COC(=O)[C@@]1(O)CO)[C@H]23 = label 1
• O=P(OCCCl)(OCCCl)OCCCl = label 0
• COC1COC(OC2COC(OC3COC(OC4COC(OC)C(OS(=O)(=O)O)C4OS(=O)(=O)O)C(OC4OC(C(=O)O)C(OC)C(OS(=O)(=O)O)C4OS(=O)(=O)O)C3OS(=O)(=O)O)C(OS(=O)(=O)O)C2OS(=O)(=O)O)C(OS(=O)(=O)O)C1OS(=O)(=O)O (stereo not drawn) = label 0
• C=C(Cl)Cl = label 1
• C/C=C/C=C/C=O = label 1
• Clc1cc2c(cc1Cl)Oc1cc(Cl)c(Cl)cc1O2 = label 1

Measured values drawn from PubChem BioAssay AID1745844 for this set.
